Sourced from the supplement of paper PMC11316812

Tested on: MCF7
PROTOCOL_SUMMARY: percentage of EdU-negative (G0-arrested) nuclei per well, 72 h; higher = more G0 arrest;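 further: secreted proteins added to cultured cells, EdU pulse at the end, nuclei found by Hoechst imaging, EdU status from nuclear versus surrounding ring intensity ratio, PBS as neutral control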
EXPERIMENTAL_CONDITIONS: protein concentration 0.0225 µM; reference: sequence is the full UniProt precursor, the tested protein was the secreted form or ectodomain
QUANTITY: percentage of EdU-negative (%)
Output spec: scalar in %, unitless text.

{"ITEM_SEQUENCE": "MAVRQWVIALALAALLVVDREVPVAAGKLPFSRMPICEHMVESPTCSQMSNLVCGTDGLTYTNECQLCLARIKTKQDIQIMKDGKC", "ASSAYED_SYSTEM": "MCF7", "UNIT_NAME": "%", "percentage of EdU-negative": 26.2}
{"ITEM_SEQUENCE": "MASRWAVQLLLVAAWSMGCGEALKCYTCKEPMTSASCRTITRCKPEDTACMTTLVTVEAEYPFNQSPVVTRSCSSSCVATDPDSIGAAHLIFCCFRDLCNSEL", "ASSAYED_SYSTEM": "MCF7", "UNIT_NAME": "%", "percentage of EdU-negative": 23.5}

Please look at the following sequence next.
INPUT: // lookup percentage of EdU-negative | system=MCF7 | key= MGTKAQVERKLLCLFILAILLCSLALGSVTVHSSEPEVRIPENNPVKLSCAYSGFSSPRVEWKFDQGDTTRLVCYNNKITASYEDRVTFLPTGITFKSVTREDTGTYTCMVSEEGGNSYGEVKVKLIVLVPPSKPTVNIPSSATIGNRAVLTCSEQDGSPPSEYTWFKDGIVMPTNPKSTRAFSNSSYVLNPTTGELVFDPLSASDTGEYSCEARNGYGTPMTSNAVRMEAVERNVGVIVAAVLVTLILLGILVFGIWFAYSRGHFDRTKKGTSSKKVIYSQPSARSEGEFKQTSSFLV [Q9Y624]
OUTPUT: 24.4

* * *

System: MCF7
PROTOCOL_SUMMARY: percentage of EdU-negative (G0-arrested) nuclei per well, 72 h; higher = more G0 arrest
EXPERIMENTAL_CONDITIONS: protein concentration 0.3125 µM; reference: sequence is the full UniProt precursor, the tested protein was the secreted form or ectodomain
Measured percentage of EdU-negative of individual entries
Value expressed in %; do not type the unit.

{"ITEM_SEQUENCE": "MARSNLPLALGLALVAFCLLALPRDARARPQERMVGELRDLSPDDPQVQKAAQAAVASYNMGSNSIYYFRDTHIIKAQSQLVAGIKYFLTMEMGSTDCRKTRVTGDHVDLTTCPLAAGAQQEKLRCDFEVLVVPWQNSSQLLKHNCVQM", "UNIT_NAME": "%", "percentage of EdU-negative": 25.4}
{"ITEM_SEQUENCE": "MSLSFLLLLFFSHLILSAWAHGEKRLAPKGQPGPAATDRNPRGSSSRQSSSSAMSSSSASSSPAASLGSQGSGLEQSSFQWSPSGRRTGSLYCRVGIGFHLQIYPDGKVNGSHEANMLSVLEIFAVSQGIVGIRGVFSNKFLAMSKKGKLHASAKFTDDCKFRERFQENSYNTYASAIHRTEKTGREWYVALNKRGKAKRGCSPRVKPQHISTHFLPRFKQSEQPELSFTVTVPEKKKPPSPIKPKIPLSAPRKNTNSVKYRLKFRFG", "UNIT_NAME": "%", "percentage of EdU-negative": 28}

Here is the next item to consider.
INPUT: What does the data say about its percentage of EdU-negative? Entry: MPWPLLLLLAVSGAQTTRPCFPGCQCEVETFGLFDSFSLTRVDCSGLGPHIMPVPIPLDTAHLDLSSNRLEMVNESVLAGPGYTTLAGLDLSHNLLTSISPTAFSRLRYLESLDLSHNGLTALPAESFTSSPLSDVNLSHNQLREVSVSAFTTHSQGRALHVDLSHNLIHRLVPHPTRAGLPAPTIQSLNLAWNRLHAVPNLRDLPLRYLSLDGNPLAVIGPGAFAGLGGLTHLSLASLQRLPELAPSGFRELPGLQVLDLSGNPKLNWAGAEVFSGLSSLQELDLSGTNLVPLPEALLLHLPALQSVSVGQDVRCRRLVREGTYPRRPGSSPKVALHCVDTRDSAARGPTIL [Q8WUA8]
OUTPUT: 29.1

* * *

Reported percentage of EdU-negative values for a set of sequences
Tested on: hTERT-HMEC
PROTOCOL_SUMMARY: percentage of EdU-negative (G0-arrested) nuclei per well, 72 h; higher = more G0 arrest
EXPERIMENTAL_CONDITIONS: protein concentration 0.0225 µM; reference: sequence is the full UniProt precursor, the tested protein was the secreted form or ectodomain
Unit % implied. Number only.

INPUT: Consider the sequence shown here: MAAWSPAAAAPLLRGIRGLPLHHRMFATQTEGELRVTQILKEKFPRATAIKVTDISGGCGAMYEIKIESEEFKEKRTVQQHQMVNQALKEEIKEMHGLRIFTSVPKR [Q53S33] What is its recorded percentage of EdU-negative?
OUTPUT: 4.56

* * *

Test system: hTERT-HMEC
PROTOCOL_SUMMARY: percentage of EdU-negative (G0-arrested) nuclei per well, 72 h; higher = more G0 arrest
EXPERIMENTAL_CONDITIONS: protein concentration 0.0225 µM; reference: sequence is the full UniProt precursor, the tested protein was the secreted form or ectodomain
QUANTITY: percentage of EdU-negative (%)
Give the number; % is assumed, so skip it.

{"ITEM_SEQUENCE": "MKYLRHRRPNATLILAIGAFTLLLFSLLVSPPTCKVQEQPPAIPEALAWPTPPTRPAPAPCHANTSMVTHPDFATQPQHVQNFLLYRHCRHFPLLQDVPPSKCAQPVFLLLVIKSSPSNYVRRELLRRTWGRERKVRGLQLRLLFLVGTASNPHEARKVNRLLELEAQTHGDILQWDFHDSFFNLTLKQVLFLQWQETRCANASFVLNGDDDVFAHTDNMVFYLQDHDPGRHLFVGQLIQNVGPIRAFWSKYYVPEVVTQNERYPPYCGGGGFLLSRFTAAALRRAAHVLDIFPIDDVFLGMCLELEGLKPASHSGIRTSGVRAPSQRLSSFDPCFYRDLLLVHRFLPYEMLLMWDALNQPNLTCGNQTQIY [Q9Y2A9]", "ASSAYED_SYSTEM": "hTERT-HMEC", "UNIT_NAME": "%", "percentage of EdU-negative": 4.33}

INPUT: Please report the recorded percentage of EdU-negative for MLLEPGRGCCALAILLAIVDIQSGGCINITSSASQEGTRLNLICTVWHKKEEAEGFVVFLCKDRSGDCSPETSLKQLRLKRDPGIDGVGEISSQLMFTISQVTPLHSGTYQCCARSQKSGIRLQGHFFSILFTETGNYTVTGLKQRQHLEFSHNEGTLSSGFLQEKVWVMLVTSLVALQAL .
OUTPUT: 4.71

INPUT: What percentage of EdU-negative value was documented for this sequence, MAAAVVLAAGLRAARRAVAATGVRGGQVRGAAGVTDGNEVAKAQQATPGGAAPTIFSRILDKSLPADILYEDQQCLVFRDVAPQAPVHFLVIPKKPIPRISQAEEEDQQLLGHLLLVAKQTAKAEGLGDGYRLVINDGKLGAQSVYHLHIHVLGGRQLQWPPG [Q9BX68] ?
OUTPUT: 4.56

* * *

Below, each entry is listed alongside its reported percentage of EdU-negative.
Test system: MCF7
PROTOCOL_SUMMARY: percentage of EdU-negative (G0-arrested) nuclei per well, 72 h; higher = more G0 arrest
EXPERIMENTAL_CONDITIONS: protein concentration 0.225 µM; reference: sequence is the full UniProt precursor, the tested protein was the secreted form or ectodomain
Number in %, nothing else.

{"ITEM_SEQUENCE": "MSGGRAPAVLLGGVASLLLSFVWMPALLPVASRLLLLPRVLLTMASGSPPTQPSPASDSGSGYVPGSVSAAFVTCPNEKVAKEIARAVVEKRLAACVNLIPQITSIYEWKGKIEEDSEVLMMIKTQSSLVPALTDFVRSVHPYEVAEVIALPVEQGNFPYLQWVRQVTESVSDSITVLP", "UNIT_NAME": "%", "percentage of EdU-negative": 25.2}
{"ITEM_SEQUENCE": "MRLPRRAALGLLPLLLLLPPAPEAAKKPTPCHRCRGLVDKFNQGMVDTAKKNFGGGNTAWEEKTLSKYESSEIRLLEILEGLCESSDFECNQMLEAQEEHLEAWWLQLKSEYPDLFEWFCVKTLKVCCSPGTYGPDCLACQGGSQRPCSGNGHCSGDGSRQGDGSCRCHMGYQGPLCTDCMDGYFSSLRNETHSICTACDESCKTCSGLTNRDCGECEVGWVLDEGACVDVDECAAEPPPCSAAQFCKNANGSYTCEECDSSCVGCTGEGPGNCKECISGYAREHGQCADVDECSLAEKTCVRKNENCYNTPGSYVCVCPDGFEETEDACVPPAEAEATEGESPTQLPSREDL [Q6UXH1]", "UNIT_NAME": "%", "percentage of EdU-negative": 26}
{"ITEM_SEQUENCE": "MVPRISAAIFIFELLGSNSEGVTDLRLWLCQPAPRCGEWTYNPLEQCCDDGVILDLNQTRLCGSSCTFWPCFQHCCLESLGSQNQTVVRFKVPGMKPDCKSSPITRICAQEYHPKSPVSRSDLI [Q6B9Z1]", "UNIT_NAME": "%", "percentage of EdU-negative": 24.9}

Alright, here's another sequence for you.
INPUT: Param item = MSPHPTALLGLVLCLAQTIHTQEEDLPRPSISAEPGTVIPLGSHVTFVCRGPVGVQTFRLERDSRSTYNDTEDVSQASPSESEARFRIDSVREGNAGLYRCIYYKPPKWSEQSDYLELLVKESSGGPDSPDTEPGSSAGPTQRPSDNSHNEHAPASQGLKAEHLYILIGVSVVFLFCLLLLVLFCLHRQNQIKQGPPRSKDEEQKPQQRPDLAVDVLERTADKATVNGLPEKDRETDTSALAAGSSQEVTYAQLDHWALTQRTARAVSPQSTKPMAESITYAAVARH [Q6GTX8] ; retrieve measured percentage of EdU-negative.
OUTPUT: 24.3
